# TEST_SYSTEM: Cell division control protein 42 homolog (Homo sapiens) (UniProt P60953)
# Sequence (P60953 whole entry, looked up): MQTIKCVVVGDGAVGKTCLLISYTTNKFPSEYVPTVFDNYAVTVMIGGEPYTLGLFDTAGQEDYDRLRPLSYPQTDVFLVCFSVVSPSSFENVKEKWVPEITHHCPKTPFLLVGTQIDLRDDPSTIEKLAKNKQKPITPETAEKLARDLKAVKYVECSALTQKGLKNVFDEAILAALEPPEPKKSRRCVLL
# PROTOCOL_DETAILS: blockade of fluorescent GTP uptake by Cdc42 wt – biochemical, bead-based multiplex flow cytometry, oxadiazole series, SAR follow-up (AID 2037)
# DETAILS: GST-Cdc42 beads, Bodipy-FL-GTP binding, Ki calculated from EC50
METRIC: Ki (nM)
Return type: number; implicit unit nM.

CHEMICAL_SMILES	METRIC	REPORTED_RESULT
COc1ccc(-c2noc(CCC(=O)N3CCC(c4cc(C)ccc4C)CC3)n2)cc1	Ki	300
Cc1ccc(C)c(N2CCN(C(=O)CCc3nc(-c4ccc(N(C)C)cc4)no3)CC2)c1	Ki	250
COc1ccc(-c2noc(CCC(=O)N3CCN(c4cccc(C)c4C)CC3)n2)cc1	Ki	240
COc1ccc(-c2noc(CCC(=O)N3CCN(c4ccccc4Br)CC3)n2)cc1	Ki	490

In the following, a different molecule is considered.
Query: Under Cell division control protein 42 homolog (Homo sapiens) (UniProt P60953): Ki value of Cc1ccc(C)c(N2CCN(C(=O)CCc3nc(-c4ccc(Cl)cc4)no3)CC2)c1 ?
Response: 360
